Data provenance: the Human Domainome abundance scans (Beltran et al. 2025)

B1: Storkhead-box protein 2, residues 64 to 141; numbered along this chain, Q9P2F5 (parent)
chain: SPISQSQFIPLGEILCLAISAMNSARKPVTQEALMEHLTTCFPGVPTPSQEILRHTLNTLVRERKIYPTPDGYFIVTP

Variants of: B1
test: abundance fitness (aPCA) (normalised: wild type 0, dead -1); higher = more abundant; growth selection in yeast, the domain comes from the species named
cond: Homo sapiens
Using abundance fitness as the sorting value, the categories are lower bin (below -0.07), middle bin (-0.07 to below -0.04), upper bin (-0.04 or more)

Band assignment needed for SPISQSQFIPLGEILCLAISAMNSARKPVTQEALMEHLTTCFPGVPTPSQEILRHQLNTLVRERKIYPTPDGYFIVTP [T56Q] please.
middle bin

Band assignment needed for SPISQSQFIPLGEILCLAISAMNSARKPVTQEALMEHLTTCFPGVPTPSQEILRHTLNKLVRERKIYPTPDGYFIVTP [T59K] please.
middle bin

Band assignment needed for SPISQSQFIPLGEILCLAISAMNSARKPVTQEALMEHLHTCFPGVPTPSQEILRHTLNTLVRERKIYPTPDGYFIVTP [T39H] please.
middle bin

Band assignment needed for SPISQSQFIPLGEILCLAISAMNKARKPVTQEALMEHLTTCFPGVPTPSQEILRHTLNTLVRERKIYPTPDGYFIVTP [S24K] please.
upper bin

Band assignment needed for SPISQSQFIPLGEILCLAISAMNSARKPVTQEALMEHLTTCFPGVPTPSQEILRHTLNTLVRERKIYPTPYGYFIVTP [D71Y] please.
lower bin

Band assignment needed for SPISQSQFIPLGERLCLAISAMNSARKPVTQEALMEHLTTCFPGVPTPSQEILRHTLNTLVRERKIYPTPDGYFIVTP [I14R] please.
lower bin

Band assignment needed for SPISQSQFIPLGEILCLAISAMNSARKPVTQEALMEHLTTCFPGVPTPSQEILRHTLNTLVRERKIYPVPDGYFIVTP [T69V] please.
lower bin

Band assignment needed for SPISQSQFIPLGEILCLAISAMNSADKPVTQEALMEHLTTCFPGVPTPSQEILRHTLNTLVRERKIYPTPDGYFIVTP [R26D] please.
upper bin

Band assignment needed for SPISQSQFIPSGEILCLAISAMNSARKPVTQEALMEHLTTCFPGVPTPSQEILRHTLNTLVRERKIYPTPDGYFIVTP [L11S] please.
lower bin

Band assignment needed for SPISQSQFIPLGEILCLAISAMNSARKPVTQEALMEHLTTCFPGVPTPSQEILRHTLNTLVRERQIYPTPDGYFIVTP [K65Q] please.
upper bin
